// reported IC50 for each item listed
# ASSAY PROTOCOL: Inhibition of Porphyromonas gingivalis ATCC 33277 MFA interaction with Streptococcus gordonii DL1(1) antigen 1/2 assessed as inhibition of 5(6)-carboxyfluorescein N-hydroxysuccinimide ester-labeled Porphyromonas gingivalis ATCC 33277 cell adhesion to hexidium iodide-labeled Streptococcus gordonii DL1(1) by measuring inhibition of biofilm formation preincubated with Porphyromonas gingivalis ATCC 33277 for 30 mins followed by addition to Streptococcus gordonii DL1(1) culture measured after 22 hrs by laser scanning confocal microscopy
# Format: cell-based

Below, each entry is followed by its recorded IC50 result.
Lookup: Any idea what IC50 was measured for COc1ccc2cc(-c3cn(-c4cccc(-c5nc(-c6ccc(Br)cc6)c(-c6ccc(Br)cc6)o5)c4)nn3)ccc2c1 ?
Found: 20.3 µM

Lookup: Continue with FC(F)(F)c1ccccc1-c1cn(Cc2nc(-c3ccc(Br)cc3)c(-c3ccc(Br)cc3)o2)nn1
Found: > 60 µM

Lookup: Continue with Fc1ccc(-c2nc(Cn3cc(-c4cccnc4)nn3)oc2-c2ccc(F)cc2)cc1
Found: 59.8 µM

Lookup: Continue with Clc1ccc(-c2nc(-c3ccc(-n4cc(-c5cccnc5)nn4)cc3)oc2-c2ccc(Cl)cc2)cc1
Found: 40.9 µM

Kindly review the next compound as well.
Lookup: Any idea what IC50 was measured for FC(F)(F)c1ccccc1-c1cn(Cc2nc(-c3ccccc3)c(-c3ccccc3)o2)nn1 ?
Found: > 60 µM
